The measured values listed here are drawn from patent US4199504A.

- test_name: Titration pKa' in 66 percent DMF
- Type: physicochemical
Examples of compounds with documented pKa' (first value) follow.
# answer = number (no unit)

Take a look at these entries with their results.
compound: CCC1(O)CC2CN(CCc3c([nH]c4ccccc34)C(C(=O)OC)(c3cc4c(cc3OC)N(C)C3C(O)(C(=O)NCCCNCCCNC(=O)C5(O)C(O)C6(CC)C=CCN7CCC8(c9cc(C%10(C(=O)OC)CC%11CN(CCc%12c%10[nH]c%10ccccc%12%10)CC(O)(CC)C%11)c(OC)cc9N(C)C58)C76)C(O)C5(CC)C=CCN6CCC43C65)C2)C1 (centres unmarked)
pKa' (first value): 4.98
//
compound: CCC1(O)CC2CN(CCc3c([nH]c4ccccc34)C(C(=O)OC)(c3cc4c(cc3OC)N(C)C3C(O)(C(=O)NCC[Se][Se]CCNC(=O)C5(O)C(O)C6(CC)C=CCN7CCC8(c9cc(C%10(C(=O)OC)CC%11CN(CCc%12c%10[nH]c%10ccccc%12%10)CC(O)(CC)C%11)c(OC)cc9N(C)C58)C76)C(O)C5(CC)C=CCN6CCC43C65)C2)C1 (centres unmarked)
pKa' (first value): 5.10
//
compound: CCC1(O)CC2CN(CCc3c([nH]c4ccccc34)C(C(=O)OC)(c3cc4c(cc3OC)N(C)C3C(O)(C(=O)NCCCCCCNC(=O)C5(O)C(O)C6(CC)C=CCN7CCC8(c9cc(C%10(C(=O)OC)CC%11CN(CCc%12c%10[nH]c%10ccccc%12%10)CC(O)(CC)C%11)c(OC)cc9N(C)C58)C76)C(O)C5(CC)C=CCN6CCC43C65)C2)C1 (centres unmarked)
pKa' (first value): 5.27
//
compound: CCC1(O)CC2CN(CCc3c([nH]c4ccccc34)C(C(=O)OC)(c3cc4c(cc3OC)N(C)C3C(O)(C(=O)NCCCCNC(=O)C5(O)C(O)C6(CC)C=CCN7CCC8(c9cc(C%10(C(=O)OC)CC%11CN(CCc%12c%10[nH]c%10ccccc%12%10)CC(O)(CC)C%11)c(OC)cc9N(C)C58)C76)C(O)C5(CC)C=CCN6CCC43C65)C2)C1 (centres unmarked)
pKa' (first value): 6.6

Below: the item to evaluate.
Fill blank: measured pKa' (first value) of the compound CCC1(O)CC2CN(CCc3c([nH]c4ccccc34)C(C(=O)OC)(c3cc4c(cc3OC)N(C)C3C(O)(C(=O)NCCOCCNC(=O)C5(O)C(O)C6(CC)C=CCN7CCC8(c9cc(C%10(C(=O)OC)CC%11CN(CCc%12c%10[nH]c%10ccccc%12%10)CC(O)(CC)C%11)c(OC)cc9N(C)C58)C76)C(O)C5(CC)C=CCN6CCC43C65)C2)C1 (centres unmarked) is ____. 5.13
